// provenance: patent US20240262795A1

The following compounds are listed with their measured IC50 values.
# Test system: K-562
# experiment_summary: Proliferation inhibition, CellTiter-Glo, K-562
# Assay type: cell-based, human
# test_context: Homo sapiens; K562 cells; read-out: IC50 in K562 cells
# Description: The proliferation inhibitory effect was investigated in human AML cell lines MOLM-13 (AddexBio: C0003003) and MV-4-11 (ATCC: CRL-9591), and CML cell line K-652 (ATCC: CRL-3343). […] Test compounds were dissolved at 10 mM in DMSO (Sigma catalog no. D8418; purity≥99.9%) and stored at −20° C. Eight concentrations of test compound were assessed in duplicate in an individual test occasion in parallel in the selected cell lines. […]
property: IC50

[[record]]
compound = "C=CC(=O)Nc1cc(Nc2nc(N[C@H]3CC[C@@](C)(O)CC3)c(CC)nc2C(N)=O)ccc1C [Compound C-3, reference compound]"
property = "IC50"
recorded_result = "> 100 nM"

[[record]]
compound = "C=CC(=O)Nc1cccc(Nc2nc(N3CCC[C@H](NC(=O)c4ccc(C5CC5)cc4)[C@@H]3C)cnc2C(N)=O)c1 [Compound C-1, reference compound]"
property = "IC50"
recorded_result = "> 100 nM"

[[record]]
compound = "C=CC(=O)Nc1cc(Nc2nc(NC3CCOCC3)c(CC)nc2C(N)=O)ccc1N1CCC(N2CCN(C)CC2)CC1 [Compound C-2, reference compound]"
property = "IC50"
recorded_result = "44 nM"


====

The following compounds are listed with their measured pIC50 values.
# study_target: WT FLT3 (Homo sapiens, UniProt P36888)
# Construct: purchased Invitrogen PR4666C
# Sequence (P36888 564-993 limits assumed): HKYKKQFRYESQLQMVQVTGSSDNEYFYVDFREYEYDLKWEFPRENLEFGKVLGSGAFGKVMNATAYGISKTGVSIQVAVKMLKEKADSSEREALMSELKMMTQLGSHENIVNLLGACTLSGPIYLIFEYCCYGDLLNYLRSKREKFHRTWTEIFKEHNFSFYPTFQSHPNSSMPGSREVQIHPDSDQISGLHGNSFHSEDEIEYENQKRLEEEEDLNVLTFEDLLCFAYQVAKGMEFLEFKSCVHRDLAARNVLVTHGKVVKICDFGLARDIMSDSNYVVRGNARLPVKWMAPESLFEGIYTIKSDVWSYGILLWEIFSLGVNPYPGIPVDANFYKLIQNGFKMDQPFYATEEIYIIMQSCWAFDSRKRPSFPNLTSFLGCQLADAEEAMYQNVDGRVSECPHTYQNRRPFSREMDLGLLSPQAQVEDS
# experiment_summary: WT FLT3 Lance Ultra TR-FRET kinase assay
# Format: biochemical
pIC50: −log10 of the molar value.
property: pIC50

[[record]]
compound_smiles = "CCc1nc(C(N)=O)c(Nc2cccc(CCNC(=O)CN(C)C(=O)/C=C/CN(C)C)c2)nc1N(C)CC"
recorded_result = "9.30 to 9.70"

[[record]]
compound_smiles = "CCc1nc(C(N)=O)c(Nc2cccc(CCNC(=O)[C@H](C)N(C)C(=O)/C=C/CNC)c2)nc1NC(C)C"
recorded_result = "9.30 to 9.70"

[[record]]
compound_smiles = "CCc1nc(Nc2cccc([C@@H](C)CNC(=O)CN(C)C(=O)/C=C/CN3CCC3)c2)c(C(N)=O)nc1CC"
recorded_result = "9.00 to 9.30"

[[record]]
compound_smiles = "C#Cc1nc(C(N)=O)c(Nc2cccc(CCNC(=O)CN(C)C(=O)/C=C/CN(C)C)c2)nc1N(C)C(C)C"
recorded_result = "9.00 to 9.30"

[[record]]
compound_smiles = "C=CC(=O)N(C)CC(=O)NCCc1cc(Nc2nc(N(C)CC)c(CC)nc2C(N)=O)ccn1"
recorded_result = "9.00 to 9.30"

[[record]]
compound_smiles = "CCc1nc(C(N)=O)c(Nc2cccc([C@@H](C)CNC(=O)CN(C)C(=O)/C=C/CN3CCC3)c2)nc1CC(C)C"
recorded_result = "9.00 to 9.30"

[[record]]
compound_smiles = "CCc1nc(C(N)=O)c(Nc2cccc([C@@H](C)CNC(=O)CN(C)C(=O)/C=C/CN3CCC3)c2)nc1N(C)CC"
recorded_result = "9.30 to 9.70"

